This collection of values is drawn from patent US20250281611A1.

Molecular target: T1, nfP2X7 CAR 1
T1 construct: CAR-positive cells gated by the co-expressed EGFR marker; also called nfP2X7 targeted CAR; nfP2X7 CAR on EGFR+ T cells
Assay: flow cytometry, anti-His-FITC, MFI on EGFR+ (CAR+) T cells over background 0.44
value_kind: HisTag MFI Ratio (background 0.44)
In your answer, state the number alone without any accompanying words.

Fill in the blank: the reported HisTag MFI Ratio (background 0.44) of CD19 BRIDGE variant B13 (Fab, V domains shown) VH: EVQLVESGGGLVKPGGSLKLSCAASGYTFTSYVMHWVRQAPGKGLEWIGYINPYNDGTKYNEKFQGRVTISSDKSISTAYMELSSLRSEDTAMYYCARGTYYYGTRVFDYWGQGTLVTVSS VL: DIVMTQSPATLSLSPGERATLSCRSSKSLQNVNGNTYLYWFQQKPGQSPQLLIYRMSNLNSGVPDRFSGSGSGTEFTLTISSLEPEDFAVYYCMQHLEYPITFGAGTKLEIKR is ____. 4.8

Fill in the blank: the reported HisTag MFI Ratio (background 0.44) of CD19 BRIDGE variant B8 (Fab, V domains shown) VH: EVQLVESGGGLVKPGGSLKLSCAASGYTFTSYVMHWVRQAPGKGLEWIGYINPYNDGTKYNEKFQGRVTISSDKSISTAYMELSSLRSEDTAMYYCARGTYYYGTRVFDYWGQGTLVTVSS VL: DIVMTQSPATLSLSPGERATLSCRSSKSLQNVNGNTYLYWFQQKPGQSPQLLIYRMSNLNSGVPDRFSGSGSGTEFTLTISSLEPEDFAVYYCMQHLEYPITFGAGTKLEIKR is ____. 5.8
